src = patent US20260234242A1

# system-tested: T1, human CDH6 with EC5 removed, on HEK293T cells (HEK293T-hCDH6-EC5 deletion) (human, UniProt P55285 54-790)
# T1 construct: Signal peptide not removed here
# T1 sequence: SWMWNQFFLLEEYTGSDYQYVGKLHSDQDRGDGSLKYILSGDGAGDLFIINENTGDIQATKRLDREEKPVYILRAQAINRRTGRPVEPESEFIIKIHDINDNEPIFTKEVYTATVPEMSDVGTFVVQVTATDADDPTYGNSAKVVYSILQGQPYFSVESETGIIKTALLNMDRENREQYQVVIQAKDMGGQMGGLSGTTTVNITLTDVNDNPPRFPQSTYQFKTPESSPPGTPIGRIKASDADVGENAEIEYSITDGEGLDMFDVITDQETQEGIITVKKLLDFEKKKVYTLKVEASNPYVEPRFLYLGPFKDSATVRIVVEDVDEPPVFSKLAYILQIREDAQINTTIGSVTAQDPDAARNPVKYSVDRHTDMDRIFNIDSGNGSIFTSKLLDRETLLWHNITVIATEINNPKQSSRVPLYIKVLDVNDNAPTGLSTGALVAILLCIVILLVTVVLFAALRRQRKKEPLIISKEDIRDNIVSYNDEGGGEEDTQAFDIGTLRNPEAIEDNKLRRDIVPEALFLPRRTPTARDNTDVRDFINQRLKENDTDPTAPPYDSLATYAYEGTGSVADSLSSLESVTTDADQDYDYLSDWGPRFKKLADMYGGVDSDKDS
# experiment-summary: FACS, HEK293T-hCDH6-EC5 deletion cells
# Source text: To confirm the binding epitope of the CDH6 antibody, the sequences after removal of these 5 regions were constructed into pcDNA3.1 vectors (purchased from Youbio, Cat. No. VT1001), and transfected into HEK293T cells (purchased from Cell Bank of Chinese Academy of Sciences, Cat. No. SCSP-502) to obtain 5 CDH6 truncated cell lines: HEK293T-hCDH6-EC1 deletion, HEK293T-hCDH6-EC2 deletion, HEK293T-hCDH6-EC3 deletion, HEK293T-hCDH6-EC4 deletion, and HEK293T-hCDH6-EC5 deletion. […]
recorded-endpoint: Max MFI (MFI)
Numbers only, in MFI.

# input binder: CHI-CDH6-14 (antibody, human IgG1, kappa, V domains shown, also called CHI-hCDH6-14; CH1-CDH6-14) VH: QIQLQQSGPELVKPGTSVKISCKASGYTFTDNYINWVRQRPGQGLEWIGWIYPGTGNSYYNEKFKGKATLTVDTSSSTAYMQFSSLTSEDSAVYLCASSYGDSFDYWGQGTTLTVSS VL: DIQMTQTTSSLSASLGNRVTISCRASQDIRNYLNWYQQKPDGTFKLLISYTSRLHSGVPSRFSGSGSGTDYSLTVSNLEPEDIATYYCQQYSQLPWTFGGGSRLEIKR ; wanted: its Max MFI
4040

# input binder: DS-H01L02 (antibody, human IgG1, kappa, V domains shown, Positive control, variable regions from WO2018212136A1; also called positive control anti-human CDH6 antibody) VH: EVQLVQSGAEVKKPGASVKVSCKASGYTFTRNFMHWVRQAPGQGLEWMGWIYPGDGETEYAQKFQGRVTITADTSTSTAYMELSSLRSEDTAVYYCARGVYGGFAGGYFDFWGQGTLVTVSS VL: DIQMTQSPSSLSASVGDRVTITCKASQNIYKNLAWYQQKPGKAPKLLIYDANTLQTGVPSRFSGSGSGSDFTLTISSLQPEDFATYFCQQYYSGWAFGQGTKVEIKR ; wanted: its Max MFI
1530

More entries:
# input binder: CHI-CDH6-5 (antibody, human IgG1, kappa, V domains shown, also called CH1-CDH6-5; chimeric antibody of murine CDH6-5) VH: QVQLQQSGAELVRPGTSVKMSCKAAEYTFTNYWIGWVKQRPGHGLEWIGDLYPGGDHANYNEKFEGKATLTADTSSSTAYMQLSSLTSEDSAIYYCARGMLTTGFDSWGQGTTLTVSS VL: DIVMSQSPSSLAVSAGEKVTMSCKSSQSLFNSRTRKNYLAWYQQKPGQSPKLLIYWASTRESGVPDRFTGSGSGTDFTLTISSVQAEDLAVYYCKQSYYLRTFGGGTKLEIKR ; wanted: its Max MFI
4240
